subjectOfTest: alpha-thrombin (native) (Homo sapiens, UniProt P00734;P00734 P00734:315-363,P00734:364-622)
assayOverview: ELONA; 20 mM Tris pH 7.5, 150 mM NaCl, 0.1% BSA, 0.1% Tween 20, salmon sperm DNA, RT; competed by 100-fold unlabeled aptamer
valueType: pKd
Recall that pKd is obtained by taking minus log10 of the concentration measured in molar.

IN: GET /values?readout=pKd&item= GCGGTGTTGCTGGGGTTGGGAGGTTGGAGGAAGCAATCGC (ssDNA) [AYA1809002]
OUT: 8.00
